- System: mitochondrial DNA in CEM cells
- ASSAY_PROTOCOL: Mitochondrial toxicity: ratio of mitochondrial DNA to Alu repeat in CEM cells
- Assay type: cell-based
- TEST_CONDITIONS: human, 8 days, 1 μM
compounds and their reported % Control (mtDNA/Alu)
Express the result in % but write the number alone.

Example entries and their recorded answers appear below.
STRUCTURE_STRING | % Control (mtDNA/Alu) / %
Nc1nc(NC2CC2)c2ncn([C@H]3C=C[C@@H](CO)C3)c2n1 | 110
Nc1ccn([C@H]2CC[C@@H](CO)O2)c(=O)n1 | 3
Nc1nc2c(ncn2[C@H]2C=C[C@@H](CO)O2)c(=O)[nH]1 | 105

With those in mind, consider the next compound.
Returns the measured % Control (mtDNA/Alu) for the input compound. Input: Nc1nc(NC2CC2)c2ncn([C@H]3C=C[C@@H](CO)O3)c2n1
99

----------
- ASSAY_TARGET: wild type HIV-1 reverse transcriptase (Human immunodeficiency virus type 1 group M subtype B)
- Construct: a mixture of 100 nM HIV-1 reverse transcriptase and 300 nM primer/template
- ASSAY_PROTOCOL: Kinetics of nucleotide incorporation by wild type HIV-1 reverse transcriptase
- Format: biochemical
- TEST_CONDITIONS: Table 4, primer/template DNA/DNA, RT WT
OBSERVED_PROPERTY: pKd
pKd here: minus log base 10 of the concentration, concentration in moles per litre.

Completed entries (count: 2):
COMPOUND | READOUT_VALUE
Nc1nc2c(ncn2C2C=CC(COP(=O)(O)OP(=O)(O)OP(=O)(O)O)C2)c(=O)[nH]1 (single isomer, unassigned; (-)) [CBVTP, (−) carbovir-TP] | 4.68
Nc1nc2c(ncn2[C@H]2C[C@H](O)[C@@H](COP(=O)(O)OP(=O)(O)OP(=O)(O)O)O2)c(=O)[nH]1 | 4.85

GET /values?readout=pKd&item= Nc1nc2c(ncn2[C@H]2C=C[C@@H](COP(=O)(O)OP(=O)(O)OP(=O)(O)O)O2)c(=O)[nH]1
4.96

----------
- ASSAY_TARGET: wild type HIV-1 reverse transcriptase (Human immunodeficiency virus type 1 group M subtype B)
- Construct: a mixture of 100 nM HIV-1 reverse transcriptase and 300 nM primer/template
- ASSAY_PROTOCOL: Kinetics of nucleotide incorporation by wild type HIV-1 reverse transcriptase
- Assay type: biochemical
- TEST_CONDITIONS: Table 3, substrate DNA/RNA
OBSERVED_PROPERTY: pKd
The meaning of pKd here: minus log10 of the concentration in molar units.

What does the record list as pKd for Nc1nc2c(ncn2[C@H]2C=C[C@@H](COP(=O)(O)OP(=O)(O)OP(=O)(O)O)O2)c(=O)[nH]1 [D4GTP] ?
5.02

----------
- System: MT-2
- ASSAY_PROTOCOL: Toxicity, dye based cell growth assay in absence of HIV, MT-2
- TEST_CONDITIONS: read-out: IC50 (inhibited 50% of the cell growth); MT-2, HTLV infected T cell line, 5 days
pIC50: −log10 of the molar value.
OBSERVED_PROPERTY: pIC50

Which pIC50 value belongs to Nc1nc(N)c2ncn([C@H]3CO[C@@H](CO)O3)c2n1 ?
< 4.00

----------
- ASSAY_TARGET: wild type HIV-1 reverse transcriptase (Human immunodeficiency virus type 1 group M subtype B)
- Construct: a mixture of 100 nM HIV-1 reverse transcriptase and 300 nM primer/template
- ASSAY_PROTOCOL: Kinetics of nucleotide incorporation by wild type HIV-1 reverse transcriptase
- Type: biochemical
- TEST_CONDITIONS: Table 3, substrate DNA/DNA
OBSERVED_PROPERTY: pKd
By convention, pKd is the negative base-10 log of a molar concentration.

Requested field: pKd. Item: Nc1nc2c(ncn2[C@H]2C=C[C@@H](COP(=O)(O)OP(=O)(O)OP(=O)(O)O)O2)c(=O)[nH]1
4.96
